- target.or.test.system: bradykinin receptor 1 (B1R) of the rat (Rattus norvegicus, UniProt P97583)
- Construct: expressed in transfected cells; host or cells: CHO K1 cells
- Sequence (P97583 whole entry): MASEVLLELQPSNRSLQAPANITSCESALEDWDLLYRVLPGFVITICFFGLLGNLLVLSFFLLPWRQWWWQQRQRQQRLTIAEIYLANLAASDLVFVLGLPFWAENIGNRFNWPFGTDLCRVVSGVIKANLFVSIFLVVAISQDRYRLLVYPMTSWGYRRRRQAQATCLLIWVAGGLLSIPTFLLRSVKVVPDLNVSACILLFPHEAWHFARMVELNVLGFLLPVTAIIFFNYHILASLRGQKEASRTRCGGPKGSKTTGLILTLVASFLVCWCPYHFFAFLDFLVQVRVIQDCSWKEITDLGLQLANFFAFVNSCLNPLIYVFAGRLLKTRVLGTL
- test.name: Functional study on the bradykinin receptor 1 (B1R), rat: FLIPR Ca2+ influx assay
- Assay type: cell-based
- test.context: test substance 10 μM; CHO K1 cells transfected with rat B1R; Des-Arg9-bradykinin at EC80; Ca2+ influx (Fluo-4, FLIPR); read-out: B1R antagonism, rat [10 μM] % inhibition
Listed below: inhibition at 10 µM values for each entry.
The figure you give is taken to be in %; do not add the unit.

{"columns": ["compound", "readout", "value.reported"],
 "data": [
  ["COc1ccc(S(=O)(=O)N2CCc3ccccc3C2CC(=O)NCCC2CCC(C(c3cccc(F)c3)N(C)C)CC2)cc1 (stereo not shown)", "inhibition at 10 µM", 57]
]}

For bradykinin receptor 1 (B1R) of the rat (Rattus norvegicus, UniProt P97583), give inhibition at 10 µM of the listed compound: COc1ccc(S(=O)(=O)N(C)C2(C(=O)NCCC3CCC(C(c4ccccc4)N(C)C)CC3)CCCCC2)cc1 (stereo not shown)
-2

Quote inhibition at 10 µM with test system bradykinin receptor 1 (B1R) of the rat (Rattus norvegicus, UniProt P97583) for O=C(CC1CCCN1S(=O)(=O)c1ccc(Cl)c(Cl)c1)NC1CCC(C(c2ccccc2)N2CCCC2)CC1 (stereo not shown)
24

With bradykinin receptor 1 (B1R) of the rat (Rattus norvegicus, UniProt P97583) as the test system, provide measured inhibition at 10 µM for this compound: CN(C)C(c1cccs1)C1CCC(CNC(=O)c2ccccc2N(C)S(=O)(=O)c2ccc(Cl)c(Cl)c2)CC1 (stereo not shown)
3
